target: H1047R PIK3CA enzyme (Homo sapiens, UniProt P42336, H1047R); assay: ADP-Glo Biochemical PIK3CA Kinase Assay
Sequence (P42336 whole entry H1047R): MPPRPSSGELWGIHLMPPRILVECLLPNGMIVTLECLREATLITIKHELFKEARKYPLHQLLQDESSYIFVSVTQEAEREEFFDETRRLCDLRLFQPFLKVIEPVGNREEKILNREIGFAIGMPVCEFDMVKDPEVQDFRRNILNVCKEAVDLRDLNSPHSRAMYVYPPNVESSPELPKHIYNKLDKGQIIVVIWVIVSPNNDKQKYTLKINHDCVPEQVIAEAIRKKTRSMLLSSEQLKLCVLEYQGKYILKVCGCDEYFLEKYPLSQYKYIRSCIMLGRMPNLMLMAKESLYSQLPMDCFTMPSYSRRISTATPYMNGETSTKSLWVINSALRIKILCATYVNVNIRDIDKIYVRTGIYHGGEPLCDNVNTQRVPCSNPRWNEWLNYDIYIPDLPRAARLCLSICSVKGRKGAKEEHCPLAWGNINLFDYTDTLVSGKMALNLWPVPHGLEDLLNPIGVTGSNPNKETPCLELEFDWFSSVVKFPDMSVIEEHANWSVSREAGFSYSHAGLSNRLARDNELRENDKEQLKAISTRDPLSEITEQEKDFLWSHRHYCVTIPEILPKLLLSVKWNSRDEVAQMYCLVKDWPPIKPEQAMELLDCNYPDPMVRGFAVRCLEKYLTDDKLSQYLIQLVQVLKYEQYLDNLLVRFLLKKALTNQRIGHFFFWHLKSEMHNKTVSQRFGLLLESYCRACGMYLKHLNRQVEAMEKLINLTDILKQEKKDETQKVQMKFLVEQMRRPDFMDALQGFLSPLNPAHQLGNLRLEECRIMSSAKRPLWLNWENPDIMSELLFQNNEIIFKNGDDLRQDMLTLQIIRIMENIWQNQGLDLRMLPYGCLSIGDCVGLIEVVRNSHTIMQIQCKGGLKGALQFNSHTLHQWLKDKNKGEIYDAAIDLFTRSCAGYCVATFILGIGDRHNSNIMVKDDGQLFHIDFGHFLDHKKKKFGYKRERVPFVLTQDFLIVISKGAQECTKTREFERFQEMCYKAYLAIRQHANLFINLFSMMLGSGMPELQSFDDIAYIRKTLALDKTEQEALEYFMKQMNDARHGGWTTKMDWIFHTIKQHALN
Sequence (P27986 whole entry partner): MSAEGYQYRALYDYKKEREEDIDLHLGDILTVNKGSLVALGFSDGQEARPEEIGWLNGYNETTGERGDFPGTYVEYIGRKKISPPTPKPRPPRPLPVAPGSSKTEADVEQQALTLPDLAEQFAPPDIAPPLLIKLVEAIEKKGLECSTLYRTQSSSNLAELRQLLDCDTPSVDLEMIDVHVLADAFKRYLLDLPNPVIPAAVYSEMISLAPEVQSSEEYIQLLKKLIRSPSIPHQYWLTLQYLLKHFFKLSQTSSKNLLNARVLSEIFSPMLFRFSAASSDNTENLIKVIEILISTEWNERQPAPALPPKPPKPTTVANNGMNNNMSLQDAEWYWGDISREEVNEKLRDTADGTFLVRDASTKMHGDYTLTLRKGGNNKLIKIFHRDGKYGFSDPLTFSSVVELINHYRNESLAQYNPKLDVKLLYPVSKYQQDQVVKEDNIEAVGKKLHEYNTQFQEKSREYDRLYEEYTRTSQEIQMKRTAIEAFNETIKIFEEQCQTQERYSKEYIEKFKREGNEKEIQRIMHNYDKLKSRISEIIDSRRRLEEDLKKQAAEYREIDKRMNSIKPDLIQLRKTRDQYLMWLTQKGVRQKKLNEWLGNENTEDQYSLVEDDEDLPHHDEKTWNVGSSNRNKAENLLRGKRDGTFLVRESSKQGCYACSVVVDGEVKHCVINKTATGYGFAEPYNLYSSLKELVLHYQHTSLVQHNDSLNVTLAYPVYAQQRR
property.measured: IC50

INSERT INTO results (compound, observed) VALUES
  ('NCCOc1cc(NC(=O)c2cc(F)cc(C(F)(F)F)c2)c2c(c1)C(=O)NC2c1cc(F)ccc1Cl (stereo not shown)', '0.1 to 0.5 µM'),
  ('O=C(Nc1cc(Br)cc2c1C(c1cc(F)ccc1Cl)NC2=O)c1cc(C(F)(F)F)ccc1F (stereo not shown)', '1 to 10 µM'),
  ('N#Cc1cc(NC(=O)N2C[C@](O)(C(F)(F)F)c3cc(F)ccc32)c2c(c1)C(=O)N[C@@H]2c1cc(F)ccc1Cl (single isomer, unassigned)', '≤ 0.1 µM');

## Input Please give the documented IC50 of COC(=O)c1cc(NC(=O)c2nsc3ccccc23)c2c(n1)C(=O)NC2c1ccccc1Cl (stereo not shown)
## Output 0.1 to 0.5 µM

## Input Fill in reported IC50 for this entry: O=C(Nc1cccc2c1C(c1ccc3cn[nH]c3c1)NC2=O)c1cc(F)cc(C(F)(F)F)c1 (stereo not shown)
## Output 10 to 100 µM

## Input Please give measured IC50 of the following entry: N#Cc1cc(NC(=O)N2C[C@H](O)c3cc(F)ccc32)c2c(c1)C(=O)N[C@H]2c1cc(F)ccc1Cl (single isomer, unassigned)
## Output 0.1 to 0.5 µM

## Input Annotate the compound O=C(Nc1cc(NC2=NC[C@H](C(F)(F)F)O2)cc2c1[C@@H](c1cc(F)ccc1Cl)NC2=O)c1cc(F)cc(C(F)(F)F)c1 (single isomer, unassigned) with its measured IC50.
## Output 1 to 10 µM

## Input Name the recorded IC50 of the compound listed here: Cc1cccc(C(=O)Nc2cc(Br)cc3c2C(c2cc(F)ccc2Cl)NC3=O)c1 (stereo not shown)
## Output 1 to 10 µM

## Input Return reported IC50. Input compound: Cc1ccccc1C1NC(=O)c2cccc(NC(=O)c3n[nH]cc3-c3ccccc3)c21 (stereo not shown)
## Output 10 to 100 µM

## Input Return IC50 for the following compound: COc1cccc(-c2cc(NC(=O)c3cc(F)cc(C(F)(F)F)c3)c3c(c2)C(=O)NC3c2cc(F)ccc2Cl)n1 (stereo not shown)
## Output ≤ 0.1 µM
